- tested on: Galectin-3 (Mus musculus)
- Sequence (P16110 whole entry): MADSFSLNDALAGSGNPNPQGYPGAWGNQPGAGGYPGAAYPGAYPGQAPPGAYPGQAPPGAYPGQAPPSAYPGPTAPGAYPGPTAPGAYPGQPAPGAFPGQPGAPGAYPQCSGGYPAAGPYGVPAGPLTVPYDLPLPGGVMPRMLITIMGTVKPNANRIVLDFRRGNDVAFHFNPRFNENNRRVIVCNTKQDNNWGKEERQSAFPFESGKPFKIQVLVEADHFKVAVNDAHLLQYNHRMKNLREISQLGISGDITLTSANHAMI
- protocol: Binding affinity to mouse full-length galectin-3 assessed as dissociation constant by SPR analysis
pKd: −log10 of the molar value.
readout type: pKd

OC[C@H]1O[C@H](Sc2cc(Cl)c(F)c(Cl)c2)[C@H](O)[C@@H](n2cc(-c3nccs3)nn2)[C@H]1O    4.15

* * *

- tested on: Galectin-8 (Homo sapiens, UniProt O00214)
- Sequence (O00214 whole entry): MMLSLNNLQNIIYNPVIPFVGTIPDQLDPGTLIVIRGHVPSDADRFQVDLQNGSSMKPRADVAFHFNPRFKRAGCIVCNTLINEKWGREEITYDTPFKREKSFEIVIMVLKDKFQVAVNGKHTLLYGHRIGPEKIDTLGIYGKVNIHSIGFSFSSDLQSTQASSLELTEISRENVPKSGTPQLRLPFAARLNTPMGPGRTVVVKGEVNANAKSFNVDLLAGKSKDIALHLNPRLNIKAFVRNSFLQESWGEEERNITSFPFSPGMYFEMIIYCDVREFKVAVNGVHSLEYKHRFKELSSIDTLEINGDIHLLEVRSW
- protocol: Binding affinity to N-terminal human Galectin-8 assessed as dissociation constant by fluorescence polarization assay
readout type: Kd (µM)

OC[C@H]1O[C@H](Sc2cc(Cl)c(F)c(Cl)c2)[C@H](O)[C@@H](n2cc(-c3nccs3)nn2)[C@H]1O    65

* * *

- protocol: Clearance in C57BL/6 mouse at 1 mg/kg, iv measured upto 8 hrs by HPLC analysis
- Type: ADME, organism-based
- assay context: in vivo
readout type: clearance (mL/min/kg)

OC[C@H]1O[C@H](Sc2cc(Cl)c(F)c(Cl)c2)[C@H](O)[C@@H](n2cc(-c3nccs3)nn2)[C@H]1O    7.5

* * *

- tested on: Galectin-1 (Homo sapiens)
- Sequence (P09382 whole entry): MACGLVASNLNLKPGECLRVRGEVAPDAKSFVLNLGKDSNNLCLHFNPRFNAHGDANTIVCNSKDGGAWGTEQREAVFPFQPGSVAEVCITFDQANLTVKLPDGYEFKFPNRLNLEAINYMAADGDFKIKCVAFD
- protocol: Binding affinity to human galectin 1 assessed as dissociation constant incubated for 30 mins in presence of TDGA probe by fluorescence polarization assay
Friendly reminder: Kd below 700 nM is met, at or above is not met.

OC[C@H]1O[C@H](Sc2ccc(Cl)c(Cl)c2)[C@H](O)[C@@H](n2cc(-c3ncc[nH]3)nn2)[C@H]1O    met
OC[C@H]1O[C@H](Sc2ccc(Cl)c(Cl)c2)[C@H](O)[C@@H](n2cc(-c3ccsc3)nn2)[C@H]1O    met
OC[C@H]1O[C@H](Sc2ccc(Cl)c(Cl)c2)[C@H](O)[C@@H](n2cc(-c3ncsn3)nn2)[C@H]1O    not met
OC[C@H]1O[C@H](Sc2cc(Cl)c(F)c(Cl)c2)[C@H](O)[C@@H](n2cc(-c3nccs3)nn2)[C@H]1O    met
OC[C@H]1O[C@H](Sc2cc(Cl)c(F)c(Cl)c2)[C@H](O)[C@@H](n2cc(-c3cncs3)nn2)[C@H]1O    not met
OC[C@H]1O[C@H](Sc2cc(Cl)c(F)c(Cl)c2)[C@H](O)[C@@H](n2cc(-c3cscn3)nn2)[C@H]1O    met
OC[C@H]1O[C@H](Sc2ccc(Cl)c(Cl)c2)[C@H](O)[C@@H](n2cc(-c3cscn3)nn2)[C@H]1O    met
OC[C@H]1O[C@H](Sc2ccc(Cl)c(Cl)c2)[C@H](O)[C@@H](n2cc(-c3nncs3)nn2)[C@H]1O    not met
OC[C@H]1O[C@H](Sc2cc(Cl)c(F)c(Cl)c2)[C@H](O)[C@@H](n2cc(-c3cccs3)nn2)[C@H]1O    not met
OC[C@H]1O[C@H](Sc2ccc(Cl)c(Cl)c2)[C@H](O)[C@@H](n2cc(-c3ncco3)nn2)[C@H]1O    not met

* * *

- tested on: UniProtKB P09382
- protocol: Binding affinity to galectin-1 (unknown origin) assessed as dissociation constant
pKd: −log10 of the molar value.
readout type: pKd

OC[C@H]1O[C@@H](S[C@@H]2O[C@H](CO)[C@H](O)[C@H](n3cc(-c4ccsc4)nn3)[C@H]2O)[C@H](O)[C@@H](n2cc(-c3ccsc3)nn2)[C@H]1O    > 8.00

Entry source: ChEMBL document CHEMBL5356960
